System: Aβtotal
Test: Screening for γ-secretase-modulating activity, Method 2: Aβtotal Alphalisa on SKNBE2 cell supernatant
Assay type: cell-based
Conditions: Method 2, Table 3c, SKNBE2 cells carrying APP 695 wild type, overnight incubation
Items are presented alongside their recorded pIC50.
Formally, pIC50 is defined as -log10 of the concentration c, with c in mol/L.

The cases that follow already have their pIC50 on record.
Q: Dear colleague, I am looking for the recorded pIC50 of the following compound: Cc1cn(-c2ccc(Nc3nc(C)cc4c3nc(-c3cccc(N(C)C)c3)n4C)cc2F)cn1
Result: 5.03

Q: Dear colleague, I am looking for the recorded pIC50 of the following compound: CCOc1cccc(-c2nc3c(Nc4ccc(-n5cnc(C)c5)c(OC)n4)cccc3n2C)c1
Result: 5.10

Q: Dear colleague, I am looking for the recorded pIC50 of the following compound: COc1cc(Nc2nc(C)cc3c2nc(-c2ccccc2Cl)n3C)ccc1-n1cnc(C)n1
Result: 5.10

Turning to the following compound.
Q: Dear colleague, I am looking for the recorded pIC50 of the following compound: COc1cc(-c2nc3c(Nc4ccc(-n5cnc(C)c5)c(OC)n4)cccc3n2C(C)C)ccc1Cl
Result: 5.09

###

Items are presented alongside their recorded pIC50.
System: Aβ42
Test: Screening for γ-secretase-modulating activity, Method 2: Aβ42 Alphalisa on SKNBE2 cell supernatant
Type: cell-based
Details: Method 2, Table 3c, SKNBE2 cells carrying APP 695 wild type, overnight incubation
Formally, pIC50 is defined as -log10 of the concentration c, with c in mol/L.

The cases that follow already have their pIC50 on record.
Q: Dear colleague, I am looking for the recorded pIC50 of the following compound: COc1cccc(-c2nc3c(Nc4ccc(-n5cnc(C)c5)c(OC)n4)cccc3n2C)c1
Result: 7.70

Q: Dear colleague, I am looking for the recorded pIC50 of the following compound: Cc1cn(-c2ccc(Nc3nc(C)cc4c3nc(-c3cccnc3)n4C)cc2F)cn1
Result: 6.26

Q: Dear colleague, I am looking for the recorded pIC50 of the following compound: COc1cc(Nc2cncc3c2nc(-c2ccc(F)cc2)n3C)ccc1-n1cnc(C)n1
Result: 6.78

Q: Dear colleague, I am looking for the recorded pIC50 of the following compound: COc1nc(Nc2cccc3c2nc(-c2cccc(C#N)c2)n3C)ccc1-n1cnc(C)c1
Result: 7.32

Q: Dear colleague, I am looking for the recorded pIC50 of the following compound: COc1nc(Nc2cccc3c2nc(-c2ccc(F)c(F)c2)n3C)ccc1-n1cnc(C)c1
Result: 7.68

Q: Dear colleague, I am looking for the recorded pIC50 of the following compound: COc1cc(Nc2cccc3c2nc(SCC(C)C)n3C)ccc1-n1cnc(C)c1
Result: 6.61

Turning to the following compound.
Q: Dear colleague, I am looking for the recorded pIC50 of the following compound: COc1cc(F)cc(-c2nc3c(Nc4ccc(-n5cnc(C)c5)c(OC)n4)cccc3n2C)c1
Result: 7.85

###

System: Aβ42
Assay: Screening for γ-secretase-modulating activity, Method 2: Aβ42 Alphalisa on SKNBE2 cell supernatant
Assay type: cell-based
Settings: Homo sapiens, Method 2, Table 3c, SKNBE2 cells carrying APP 695 wild type, overnight incubation
Items are presented alongside their recorded IC50.
Give your result in nM as a bare value.

Q: Dear colleague, I am looking for the recorded IC50 of the following compound: COc1nc(Nc2cccc3c2nc(-c2ccc(F)c(Br)c2)n3C)ccc1-n1cnc(C)c1 [Compound 133]
Result: 9

Q: Dear colleague, I am looking for the recorded IC50 of the following compound: COc1cc(Nc2cccc3c2nc(-c2ccc(F)cc2)n3C(C)C)ccc1-n1cnc(C)c1 [Compound 2]
Result: 9

Q: Dear colleague, I am looking for the recorded IC50 of the following compound: COc1nc(Nc2cccc3c2nc(-c2ccc(F)cc2)n3C)ccc1-n1cnc(C)c1 [Compound 15]
Result: 6

Turning to the following compound.
Q: Dear colleague, I am looking for the recorded IC50 of the following compound: COc1cc(Nc2nccc3c2nc(-c2ccc(F)cc2)n3C)ccc1-n1cnc(C)c1 [Compound 8]
Result: 17

###

Items are presented alongside their recorded IC50.
Tested on: Aβtotal
Test: Screening for γ-secretase-modulating activity, Method 2: Aβtotal Alphalisa on SKNBE2 cell supernatant
Type: cell-based
Settings: Method 2, Table 3c, SKNBE2 cells carrying APP 695 wild type, overnight incubation

The cases that follow already have their IC50 on record.
Q: Dear colleague, I am looking for the recorded IC50 of the following compound: COc1cc(Nc2cccc3c2nc(-c2ccc(C(F)(F)F)nc2)n3C(C)C)ccc1-n1cnc(C)c1 [Compound 117]
Result: > 10 µM

Q: Dear colleague, I am looking for the recorded IC50 of the following compound: COc1cc(-c2nc3c(Nc4ccc(-n5cnc(C)n5)c(OC)c4)nc(C)cc3n2C)ccc1Cl [Compound 135]
Result: > 10 µM

Q: Dear colleague, I am looking for the recorded IC50 of the following compound: COc1cc(-c2nc3c(Nc4ccc(-n5cnc(C)c5)c(OC)n4)cccc3n2C)ccc1Cl [Compound 134]
Result: 6.92 µM

Q: Dear colleague, I am looking for the recorded IC50 of the following compound: COc1cc(Nc2cccc3oc(C4CCN(C)CC4)nc23)ccc1-n1cnc(C)c1 [Compound 40]
Result: > 3 µM

Q: Dear colleague, I am looking for the recorded IC50 of the following compound: COc1cc(Nc2cccc3c2nc(-c2ccc(F)cc2)n3C(C)C)ccc1-n1cnc(C)n1.Cl.Cl [Compound 75]
Result: 7.76 µM

Q: Dear colleague, I am looking for the recorded IC50 of the following compound: COc1nc(Nc2cccc3c2nc(-c2ccccc2C(F)(F)F)n3C)ccc1-n1cnc(C)c1 [Compound 172]
Result: > 10 µM

---
Q: Dear colleague, I am looking for the recorded IC50 of the following compound: COc1cc(Nc2nccc3c2nc(-c2ccc(F)cc2)n3C)ccc1-n1cnc(C)n1 [Compound 92]
Result: 4.27 µM

Q: Dear colleague, I am looking for the recorded IC50 of the following compound: COc1ccccc1-c1nc2c(Nc3ccc(-n4cnc(C)c4)c(F)c3)nc(C)cc2n1C [Compound 138]
Result: > 10 µM

###

Test system: Aβtotal
Experiment: Screening for γ-secretase-modulating activity, Method 1: Aβtotal sandwich ELISA on SKNBE2 cell media
Type: cell-based
Settings: Table 3a; SKNBE2 cells carrying APP 695 wild type, 18 hours; XLfit, top/bottom fixed to 100 and 0, hill slope 1
pIC50: −log10 of the molar value.
reported endpoint: pIC50

The cases that follow already have their pIC50 on record.
Q: Dear colleague, I am looking for the recorded pIC50 of the following molecule: COc1cc(Nc2nccc3[nH]c(-c4ccc(F)cc4)nc23)ccc1-n1cnc(C)c1
Result: < 6.00

Q: Dear colleague, I am looking for the recorded pIC50 of the following molecule: COc1cc(Nc2cccc3c2nc(-c2ccc(F)cc2)n3C)ccc1-n1ncnc1C
Result: < 5.52

Q: Dear colleague, I am looking for the recorded pIC50 of the following molecule: Cc1ncnn1-c1ccc(Nc2nccc3c2nc(-c2ccc(F)cc2)n3C)cc1F
Result: < 5.52

Q: Dear colleague, I am looking for the recorded pIC50 of the following molecule: Cc1ncn(-c2ccc(Nc3cccc4c3nc(-c3ccc(F)cc3)n4C(C)(C)C)cc2)n1
Result: < 5.52

Q: Dear colleague, I am looking for the recorded pIC50 of the following molecule: COc1cc(Nc2cccc3c2nc(CC2CCOCC2)n3C)ccc1-n1cnc(C)c1
Result: < 6.00

---
Q: Dear colleague, I am looking for the recorded pIC50 of the following molecule: Cc1cn(-c2ccc(Nc3cccc4c3nc(-c3ccc(F)cc3)n4C)cc2F)cn1
Result: < 5.52

Q: Dear colleague, I am looking for the recorded pIC50 of the following molecule: Cc1cc2c(nc(-c3ccc(F)cc3)n2C)c(Nc2ccc(-n3ncnc3C)c(F)c2)n1
Result: < 5.52

Q: Dear colleague, I am looking for the recorded pIC50 of the following molecule: COc1cc(Nc2cccc3oc(C4CCN(C)CC4)nc23)ccc1-n1cnc(C)c1
Result: < 5.52

Q: Dear colleague, I am looking for the recorded pIC50 of the following molecule: COc1ccccc1-c1nc2c(Nc3ccc(-n4cnc(C)c4)c(OC)c3)cccc2o1
Result: < 5.00

Q: Dear colleague, I am looking for the recorded pIC50 of the following molecule: COc1cc(Nc2cccc3c2nc(N2CC(C)OC(C)C2)n3C)ccc1-n1cnc(C)c1 (centres unmarked)
Result: < 5.30

Q: Dear colleague, I am looking for the recorded pIC50 of the following molecule: COc1cc(Nc2cccc3c2nc(N2CCCCC2)n3C)ccc1-n1cnc(C)c1
Result: < 5.52

Q: Dear colleague, I am looking for the recorded pIC50 of the following molecule: Cc1ncn(-c2ccc(Nc3cccc4c3nc(-c3ccc(F)cc3)n4C(C)C)cc2F)n1.Cl.Cl
Result: < 5.52

Q: Dear colleague, I am looking for the recorded pIC50 of the following molecule: COc1cc(Nc2cccc3c2nc(COc2ccccc2)n3C)ccc1-n1ncnc1C
Result: < 5.52

Q: Dear colleague, I am looking for the recorded pIC50 of the following molecule: COc1cc(Nc2cccc3oc(-c4cccnc4)nc23)ccc1-n1cnc(C)c1
Result: < 5.52
